test: solvent given as SMILES; settings: in CN(C)C=O
Criterion: emission maximum strictly under 500 nm. Met: Condition met. Not met: Condition not met.

Does COCCOCCOCCOc1ccc(OCCOCCOCCOC)c(C=O)c1 have emission maximum strictly under 500 nm?
Condition met

Does CCCCCCOc1ccc(N(c2ccc(OCCCCCC)cc2)c2ccc(-c3sc(-c4ccc(N(c5ccc(OCCCCCC)cc5)c5ccc(OCCCCCC)cc5)cc4)c4nc(-c5ccccc5)c(-c5ccccc5)nc34)cc2)cc1 have emission maximum strictly under 500 nm?
Condition not met

Does N#CC(C#N)=Cc1ccc2c(c1)[nH]c1c3ccccc3sc21 have emission maximum strictly under 500 nm?
Condition not met

Does NS(=O)(=O)c1ccc(N2N=C(c3ccc(O)cc3)CC2c2ccccc2)cc1 (centres undefined) have emission maximum strictly under 500 nm?
Condition met

Does CN(C)c1ccc2cc(C(/C=C/c3cn(C)c4ccccc34)=C(C#N)C#N)c(=O)oc2c1 have emission maximum strictly under 500 nm?
Condition not met

Does CCN(CC)c1ccc(/C=N/c2cc3ccccc3cc2/N=C/c2ccc(N(CC)CC)cc2O)c(O)c1 have emission maximum strictly under 500 nm?
Condition not met

Does CC[N+]1(CC)CN2C(C)=CC(C)=C(C(=O)[O-])C2=N1 have emission maximum strictly under 500 nm?
Condition met

Does Cc1cc(C)c(B(c2ccc(N3c4ccccc4C(C)(C)c4ccccc43)cc2)c2c(C)cc(C)cc2C)c(C)c1 have emission maximum strictly under 500 nm?
Condition not met

====

assay: solvent given as SMILES; settings: in ClC(Cl)Cl
Would you mind labelling by emission maximum? At or over 600 nm is fulfilled, under is not fulfilled.

Given F[B-]1(F)OC(c2ccc(Br)cc2)=Cc2c3ccccc3cc[n+]21 , state whether its emission maximum is at least 600 nm.
not fulfilled

Given c1ccc2c(c1)oc1nc3oc4ccc(-n5c6ccccc6c6ccccc65)cc4c3cc12 , state whether its emission maximum is at least 600 nm.
not fulfilled

Given CCOC(=O)c1ccc(/C=C/C2=[N+]3C(=C(c4ccccc4)c4ccc(/C=C/c5ccc(C(=O)OCC)o5)n4[B-]3(F)F)C=C2)o1 , state whether its emission maximum is at least 600 nm.
fulfilled

Given N#Cc1cc2ccc(O)cc2oc1=O , state whether its emission maximum is at least 600 nm.
not fulfilled

====

assay: solvent given as SMILES; conditions: in Cc1ccccc1
Hi there, I'd appreciate the recorded emission maximum for every entry that follows.
Write the number in nm without appending the unit.

Which emission maximum is listed for COc1ccc(-n2c3ccccc3c3cc(/C=C/C(=C(C#N)C#N)c4ccccc4)ccc32)cc1 ?
526

Which emission maximum is listed for c1ccc2sc(-c3ccc(-c4nnc(-c5ccc(-c6nnc(-c7ccc(-c8cc9ccccc9s8)s7)o6)cc5)o4)s3)cc2c1 ?
399

Which emission maximum is listed for Cc1c2oc3c(C)c(N)cc(C(=O)NC4OC(=O)C(C(C)C)N(C)C(=O)CN(C)C(=O)C5CCCN5C(=O)C(C(C)C)NC4=O)c3nc-2c(C(=O)NC2OC(=O)C(C(C)C)N(C)C(=O)CN(C)C(=O)C3CCCN3C(=O)C(C(C)C)NC2=O)c(N)c1=O (stereo not drawn) ?
613.07

====

assay: solvent given as SMILES; conditions: in C1CCOC1
endpoint.name: emission maximum (nm)
Write the number in nm without appending the unit.

Which emission maximum is listed for O=P1(c2ccccc2)C(c2cc(C(F)(F)F)cc(C(F)(F)F)c2)=Cc2c3ccc4cccc5ccc(c6cc(-c7ccc(N(c8ccccc8)c8ccccc8)cc7)n1c26)c3c45 (stereo not given) ?
620

Which emission maximum is listed for CCCCC(CC)Cn1c2cc(C#N)c(-c3ccc(N(c4ccccc4)c4ccccc4)cc3)cc2c2cc(-c3ccc(N(c4ccccc4)c4ccccc4)cc3)c(C#N)cc21 (stereo not given) ?
494

Which emission maximum is listed for CCCCC1(CCCC)c2cc(C#Cc3ccc(C=C(c4ccccc4)c4ccccc4)cc3)ccc2-c2ccc(C#Cc3ccc(C=C(c4ccccc4)c4ccccc4)cc3)cc21 ?
416

Which emission maximum is listed for Cc1cc(-n2c3ccccc3c3cc(C#N)ccc32)ccc1-c1ccc(S(=O)(=O)c2ccccc2)cc1C ?
369.19

Which emission maximum is listed for c1ccc(-c2cc(-c3ccccc3)cc(-c3ccc4c(c3)C3(c5ccccc5-4)c4ccccc4-c4c3c3c5ccccc5c(-c5cc(-c6ccccc6)cc(-c6ccccc6)c5)cc3c3ccccc43)c2)cc1 (stereo not given) ?
440

Which emission maximum is listed for C1=C(c2ccccc2)C=C(c2ccccc2)/C1=C/c1ccc2ccc3cccc4ccc1c2c34 ?
480

Which emission maximum is listed for CN(C)c1ccc(/C=C/c2ccc(C#N)cc2)cc1 ?
499

Which emission maximum is listed for CC(C)(C)c1ccc2c(c1)sc1[n+]2[B-](F)(F)n2c(c3cccc4c(Br)ccc2c43)=N1 ?
520

Which emission maximum is listed for COc1cc(OC)c(C2=C3C(C)=CC(C)=[N+]3[B-](F)(F)n3c(C)cc(C)c32)c(OC)c1 ?
517

Which emission maximum is listed for COCCN1C(=O)/C(=C/c2cccc(N(C)C)c2)N=C1C ?
563

Which emission maximum is listed for CCCCCOc1cc2oc(=O)c3c4ccc(N)cc4c4ccc5cccc6c(c1)c2c3c4c56 ?
550

Which emission maximum is listed for O=c1oc2ccccc2cc1-c1ccc([N+](=O)[O-])cc1 ?
421

Which emission maximum is listed for Cc1c2oc3c(C)c(N)cc(C(=O)NC4OC(=O)C(C(C)C)N(C)C(=O)CN(C)C(=O)C5CCCN5C(=O)C(C(C)C)NC4=O)c3nc-2c(C(=O)NC2OC(=O)C(C(C)C)N(C)C(=O)CN(C)C(=O)C3CCCN3C(=O)C(C(C)C)NC2=O)c(N)c1=O (stereo not given) ?
608.36

Which emission maximum is listed for Cc1ccc(C2=C3C=CC([Se]c4ccccc4)=[N+]3[B-](F)(F)n3c([Se]c4ccccc4)ccc32)cc1 ?
609

Which emission maximum is listed for COc1ccc(/C=C/C2=CC(/C=C/c3ccc(OC)cc3)=[O+][B-](OC(C)=O)(OC(C)=O)O2)cc1 ?
518

====

experiment: solvent given as SMILES; details: in Cc1ccccc1
Would you mind labelling by emission maximum? At or over 500 nm is YES, under is NO.

Given Cc1cc(C)c(C2=C3C=C(c4ccc(C(C)(C)C)cc4)C(c4ccc(C(C)(C)C)cc4)=[N+]3[B-](F)(F)n3c2cc(-c2ccc(C(C)(C)C)cc2)c3-c2ccc(C(C)(C)C)cc2)c(C)c1 , state whether its emission maximum is at least 500 nm.
YES

Given c1ccc(-c2nc(-c3ccccc3)nc(-c3ccc(-n4c5ccc(-c6ccc7sc8ccccc8c7c6)cc5c5cc(-c6ccc7sc8ccccc8c7c6)ccc54)cc3)n2)cc1 , state whether its emission maximum is at least 500 nm.
NO

Given CCCCCCC(CCCCCC)N1C(=O)c2cccc3c(-c4ccc(OC)c5ccccc45)ccc(c23)C1=O , state whether its emission maximum is at least 500 nm.
NO

Given CC1=[N+]2C(=C(c3c4ccccc4c(-c4ccccc4)c4ccccc34)c3ccc(C)n3[B-]2(F)F)C=C1 , state whether its emission maximum is at least 500 nm.
YES

Given CN(C)c1ccc(/C=C/c2cc(/C=C/c3ccc(N(C)C)cc3)nc(/C=C/c3ccc(N(c4ccccc4)c4ccccc4)cc3)n2)cc1 , state whether its emission maximum is at least 500 nm.
NO

Given O=C1c2ccccc2S(=O)(=O)c2ccc(-n3c4ccccc4c4ccccc43)cc21 , state whether its emission maximum is at least 500 nm.
YES

Given N#CC(C#N)=C(/C=C/c1cc2c3c(c1)CCCN3CCC2)c1ccc2c3c(cccc13)CC2 , state whether its emission maximum is at least 500 nm.
YES

====

assay: solvent given as SMILES; conditions: in CS(C)=O
endpoint.name: emission maximum (nm)
Write the number in nm without appending the unit.

Which emission maximum is listed for CCCCCCCCC1(CCCCCCCC)c2cc(-c3ccc([N+](=O)[O-])cc3)ccc2-c2ccc(-c3ccc([N+](=O)[O-])cc3)cc21 ?
589

Which emission maximum is listed for N#Cc1cc2ccc(O)cc2oc1=O ?
401

Which emission maximum is listed for COC(=O)c1ccc(C#Cc2ccc(N(C)C)cc2)cc1 ?
548.49

Which emission maximum is listed for CC1(C)Nc2cc(Cl)ccc2-c2[nH]c3ccccc3c(=O)c21 ?
494

Which emission maximum is listed for CCN(CC)c1ccc(-c2nc3c(c4c2-c2ccccc2CC4)-c2ccccc2CC3)cc1 ?
470

Which emission maximum is listed for CCN1\C(=C/C=C/C=C/C2=[N+](CC)c3ccc4cc(Br)ccc4c3C2(C)C)C(C)(C)c2c1ccc1cc(Br)ccc21 ?
709

Which emission maximum is listed for COc1cccc(-c2nc3sc4ccccc4c3s2)c1 ?
412

Which emission maximum is listed for Fc1ccc2sc3nc(-c4ccccc4)sc3c2c1 ?
409

Which emission maximum is listed for CCCCCn1c2ccccc2c(=O)c2ccccc21 ?
414

Which emission maximum is listed for COc1ccc(/C=C/C2=CC(/C=C/c3ccc(OC)cc3)=[O+][B-](OC(C)=O)(OC(C)=O)O2)cc1 ?
548
